Numbers sourced from paper PMC5748433.

test: Pharmacokinetic study in rats, plasma (LC/MS/MS, non-compartmental); type: in vivo, rat; details: rat, plasma, ip, 2.5 mg/kg, rat plasma, EMD386088 2.5 mg/kg i.p. jointly with imipramine (IMI) 15 mg/kg i.p.; read-out: t1/2
Result type: half-life
Kindly write the number and append the unit.

Query string: Please look up its half-life: `Cc1[nH]c2ccc(Cl)cc2c1C1=CCNCC1.Cl`
Result string: 1.28 h

---

assay: Distribution of EMD386088 in rats' brain (LC/MS/MS, non-compartmental); format: in vivo, rat; conditions: rat, brain, ip, 2.5 mg/kg, rat brain, EMD386088 2.5 mg/kg i.p. jointly with imipramine (IMI) 15 mg/kg i.p.
Result type: MRT (h)
Write the answer as a number in h, unit excluded.

Query string: Please look up its MRT: Cc1[nH]c2ccc(Cl)cc2c1C1=CCNCC1.Cl [EMD386088]
Result string: 2.12
